Sourced from paper PMC2730741

Recorded pIC50 values (lethal factor (LF) (Bacillus anthracis, UniProt P15917)) are given below.
One number for each entry, as −log10 of the molar value.

SMILES_REPR: O=S(=O)(Nc1sccc1-c1nc2ccccc2s1)c1cc(OCC(F)(F)F)ccc1OCC(F)(F)F
TEST_VALUE: 4.41

Turning now to a further record.
# input molecule: `CSc1nccc(-c2ccc(S(=O)(=O)Nc3sccc3-c3nc4ccccc4s3)s2)n1` ; wanted: its pIC50
4.74

----------
Test system: RAW 264.7 macrophages, LF/PA induced cell death
Assay: cells
Format: cell-based, Murine
Conditions: Mus musculus, RAW264.7, 4 h, read-out: EC50 (macrophage assay)
ASSAY_METRIC: EC50 (nM)
Answers are plain numbers, in nM.

// returns reported EC50 for input `COc1ccc(-c2ccc(S(=O)(=O)Nc3sccc3-c3nc4ccccc4s3)cc2)cc1`
561

----------
ASSAY_METRIC: Pampa

Examples with answers:
SMILES_REPR: Cc1csc(NS(=O)(=O)c2ccc([N+](=O)[O-])cc2)c1-c1nc2ccccc2s1
Pampa: High
--
SMILES_REPR: O=S(=O)(Nc1sccc1-c1nc2ccccc2s1)c1ccc2ncsc2c1
Pampa: High
--
SMILES_REPR: COc1ccc(-c2ccc(S(=O)(=O)Nc3sccc3-c3nc4ccccc4s3)cc2)cc1
Pampa: Low
--
SMILES_REPR: Cc1ccc(S(=O)(=O)Nc2sccc2-c2nc3ccccc3s2)cc1Cl
Pampa: High

Which value of Pampa has been reported for `O=S(=O)(Nc1sccc1-c1nc2ccccc2s1)c1ccc(-c2ccc(Cl)cc2)cc1` in the records?
Low
